The reported numbers originate from patent US12195427B2.

# SYSTEM: MASP-2 CCP2-SP (Homo sapiens (Human), UniProt O00187)
# Sequence (O00187 445-686): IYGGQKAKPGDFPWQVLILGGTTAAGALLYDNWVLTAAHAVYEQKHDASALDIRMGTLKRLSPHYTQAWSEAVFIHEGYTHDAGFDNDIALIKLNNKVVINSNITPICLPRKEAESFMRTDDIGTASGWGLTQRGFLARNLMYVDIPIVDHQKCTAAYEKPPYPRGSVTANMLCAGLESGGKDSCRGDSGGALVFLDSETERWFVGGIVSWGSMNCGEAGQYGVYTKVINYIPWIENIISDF
# Sequence (O00187 364-432 partner): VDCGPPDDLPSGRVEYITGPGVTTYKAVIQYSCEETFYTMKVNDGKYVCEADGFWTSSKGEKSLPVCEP
# ASSAY NOTES: MASP-2 co-crystallization, X-ray crystallography and structure analysis (H-bonds, van der Waals contacts)
# Design: unit not given beside the values
# MEASUREMENT CONDITIONS: Table A2-13; MASP-2 GLY 656 CA
Structures can show the parent of a compound that is named as a salt.
QUANTITY MEASURED: van der Waals contact distance GLY 656 atom CA
Lab note: write the figure by itself, no unit.

-- ask Kindly indicate its recorded van der Waals contact distance GLY 656 atom CA. Item: C[C@H](NC(=O)[C@H]1C[C@H](c2ccccc2)CN1)C(=O)NCc1ccc(N)nc1
-- reply 3.73

-- ask Kindly indicate its recorded van der Waals contact distance GLY 656 atom CA. Item: C[C@H](NC(=O)[C@H]1C[C@H](Cc2ccccc2)CN1)C(=O)NCc1ccc(C(=N)N)cc1
-- reply 3.61

-- ask Kindly indicate its recorded van der Waals contact distance GLY 656 atom CA. Item: C[C@H](NC(=O)[C@H]1C[C@H](Cc2ccccc2)CN1)C(=O)NCc1cnc2c(c1)c(Cl)cn2C [compound 1450, Dihydrochloride]
-- reply 3.75

-- ask Kindly indicate its recorded van der Waals contact distance GLY 656 atom CA. Item: C[C@H](NC(=O)c1cc(-c2ccccc2)c[nH]1)C(=O)NCc1ccc(C(=N)N)cc1
-- reply 3.86

-- ask Kindly indicate its recorded van der Waals contact distance GLY 656 atom CA. Item: Cc1c(/N=C/c2ccc(OC(=O)c3ccco3)cc2)c(=O)n(-c2ccccc2)n1C
-- reply 3.72

---

Task for the reader: assign each of the following compounds its reported van der Waals contact distance, MASP-2 PRO 606 atom O.
# SYSTEM: MASP-2 CCP2-SP (Homo sapiens (Human), UniProt O00187)
# ASSAY NOTES: MASP-2 co-crystallization, X-ray crystallography and structure analysis (H-bonds, van der Waals contacts)
# Set-up: unit not given beside the values
# MEASUREMENT CONDITIONS: Table A2-4
Where a name gives a salt, the structure may show the parent alone.
Lab note: write the figure by itself, no unit.

-- ask Kindly indicate its recorded van der Waals contact distance, MASP-2 PRO 606 atom O. Item: C[C@H](NC(=O)[C@H]1Cc2c([nH]c3ccccc23)CN1)C(=O)NCc1ccc(C(=N)N)cc1
-- reply 3.33

-- ask Kindly indicate its recorded van der Waals contact distance, MASP-2 PRO 606 atom O. Item: Cc1cccc([C@H]2CN[C@@H](C(=O)N[C@@H](C)C(=O)NCc3ccc(N)nc3C)C2)c1 [compound 1257, Dihydrochloride]
-- reply 3.38

-- ask Kindly indicate its recorded van der Waals contact distance, MASP-2 PRO 606 atom O. Item: C[C@H](NC(=O)[C@H]1C[C@@H](c2ccccc2)CN1)C(=O)NCc1ccc(C(=N)N)cc1
-- reply 3.73

-- ask Kindly indicate its recorded van der Waals contact distance, MASP-2 PRO 606 atom O. Item: Cc1cnc(NCCc2ccccc2)c(=O)n1CC(=O)NCc1ccc2nc(N)[nH]c2c1
-- reply 3.81

-- ask Kindly indicate its recorded van der Waals contact distance, MASP-2 PRO 606 atom O. Item: CC(=O)Nc1ccc(CCN[C@H](CCc2ccccc2)C(=O)N[C@@H](C)C(=O)NCc2ccc(N)nc2C)cc1 [compound 1368, Dihydrochloride]
-- reply 3.75

-- ask Kindly indicate its recorded van der Waals contact distance, MASP-2 PRO 606 atom O. Item: C[C@H](NC(=O)[C@H]1C[C@@H](c2ccccc2)CN1)C(=O)NCc1ccc2c(N)nccc2c1
-- reply 3.4

---

# SYSTEM: MASP-2 CCP2-SP (Homo sapiens (Human))
# ASSAY NOTES: MASP-2 co-crystallization, X-ray crystallography and structure analysis (H-bonds, van der Waals contacts)
# MEASUREMENT CONDITIONS: Table A6-1 pharmacophore angle
QUANTITY MEASURED: a(CA1, O1, O2)

-- ask Kindly indicate its recorded a(CA1, O1, O2). Item: C[C@H](NC(=O)[C@H](N)CCCc1ccccc1)C(=O)NCc1ccc(C(=N)N)cc1.Cl.Cl [1042_2]
-- reply 116.12

-- ask Kindly indicate its recorded a(CA1, O1, O2). Item: C[C@H](NC(=O)[C@H](N)C1Cc2ccccc2C1)C(=O)NCc1ccc2c(N)nccc2c1.Cl.Cl [1088_A]
-- reply 99.08

-- ask Kindly indicate its recorded a(CA1, O1, O2). Item: Cc1nc(N)ccc1CNC(=O)[C@H](C)NC(=O)[C@H]1C[C@H](Cc2ccc3ccccc3c2)CN1
-- reply 105.30

-- ask Kindly indicate its recorded a(CA1, O1, O2). Item: C[C@H](NC(=O)[C@H](N)CCc1ccccc1)C(=O)NCc1ccc(N)nc1.Cl.Cl [1007_2]
-- reply 107.55

-- ask Kindly indicate its recorded a(CA1, O1, O2). Item: C[C@H](NC(=O)[C@H]1C[C@@H](c2ccccc2)CCN1)C(=O)NCc1cc(Cl)ccc1O.Cl [1078_10]
-- reply 108.49

-- ask Kindly indicate its recorded a(CA1, O1, O2). Item: C[C@H](NC(=O)[C@H]1C[C@@H](c2ccccc2)CCN1)C(=O)NCc1cc(Cl)ccc1O.Cl [1078_14]
-- reply 109.29

-- ask Kindly indicate its recorded a(CA1, O1, O2). Item: Cc1nc(N)ccc1CNC(=O)[C@H](C)NC(=O)[C@H]1C[C@H](Cc2ccccc2Br)CN1.O=C(O)C(F)(F)F.O=C(O)C(F)(F)F [1372_B]
-- reply 107.52

---

# SYSTEM: UniProt O00187
# ASSAY NOTES: MASP-2 co-crystallization, X-ray crystallography and structure analysis (H-bonds, van der Waals contacts)
# MEASUREMENT CONDITIONS: Table A7-1; between pharmacophore elements of the bound compound
Counter-ions that a name gives are not always drawn.
Task for the reader: assign each of the following compounds its reported Pharmacophore torsion angle a(O1, H4, O2, CA1).

-- ask Kindly indicate its recorded Pharmacophore torsion angle a(O1, H4, O2, CA1). Item: Cc1cnc(NCCc2ccccc2)c(=O)n1CC(=O)NCc1ccc2nc(N)[nH]c2c1
-- reply −60.21

-- ask Kindly indicate its recorded Pharmacophore torsion angle a(O1, H4, O2, CA1). Item: Cc1nc(N)ccc1CNC(=O)C(C)NC(=O)C1CC(c2cccc3ccccc23)CCN1.Cl.Cl (centres unmarked) [1297_1]
-- reply −85.98

-- ask Kindly indicate its recorded Pharmacophore torsion angle a(O1, H4, O2, CA1). Item: C[C@H](NC(=O)[C@H]1C[C@@H](c2ccccc2)CCN1)C(=O)NCc1ccc(C(=N)N)cc1 (stereo in doubt)
-- reply −21.94

-- ask Kindly indicate its recorded Pharmacophore torsion angle a(O1, H4, O2, CA1). Item: C[C@H](NC(=O)[C@H](N)CCCc1ccccc1)C(=O)NCc1ccc(C(=N)N)cc1.Cl.Cl [1042_1]
-- reply −160.50

-- ask Kindly indicate its recorded Pharmacophore torsion angle a(O1, H4, O2, CA1). Item: C[C@H](NC(=O)[C@H]1C[C@@H](c2ccccc2)CCN1)C(=O)NCc1cc(Cl)ccc1O.Cl [1078_12]
-- reply −75.33

-- ask Kindly indicate its recorded Pharmacophore torsion angle a(O1, H4, O2, CA1). Item: CC(NC(=O)C(CCc1ccccc1)NCc1ccc(C(=O)N2CCOCC2)cc1)C(=O)NCc1ccc(C(=N)N)cc1.Cl.Cl (centres unmarked)
-- reply 15.20

-- ask Kindly indicate its recorded Pharmacophore torsion angle a(O1, H4, O2, CA1). Item: C[C@H](NC(=O)[C@H](N)CCc1cccc(Cl)c1)C(=O)NCc1ccc(C(=N)N)cc1
-- reply −62.03

-- ask Kindly indicate its recorded Pharmacophore torsion angle a(O1, H4, O2, CA1). Item: C[C@H](NC(=O)[C@H]1C[C@H](Cc2ccccc2)CN1)C(=O)NCc1cc(Cl)ccc1-n1cnnn1 [compound 1371, Hydrochloride]
-- reply −68.15

-- ask Kindly indicate its recorded Pharmacophore torsion angle a(O1, H4, O2, CA1). Item: C[C@H](NC(=O)[C@H]1C[C@@H](c2ccccc2)CCN1)C(=O)NCc1cc(Cl)ccc1O.Cl [1078_14]
-- reply −62.09

-- ask Kindly indicate its recorded Pharmacophore torsion angle a(O1, H4, O2, CA1). Item: C[C@H](NC(=O)[C@@H](CCc1ccccc1)NCc1ccc(N2CCOCC2)cc1)C(=O)NCc1ccc(C(=N)N)cc1
-- reply −48.11

-- ask Kindly indicate its recorded Pharmacophore torsion angle a(O1, H4, O2, CA1). Item: Cc1nc(N)ccc1CNC(=O)C(C)NC(=O)C1CC(c2cccc3ccccc23)CCN1.Cl.Cl (centres unmarked) [1297_3]
-- reply −86.03

-- ask Kindly indicate its recorded Pharmacophore torsion angle a(O1, H4, O2, CA1). Item: Cc1nc(N)ccc1CNC(=O)[C@H](C)NC(=O)[C@H]1C[C@H](Cc2cccc(Cl)c2)CN1.Cl.Cl [1328_1]
-- reply −88.07

-- ask Kindly indicate its recorded Pharmacophore torsion angle a(O1, H4, O2, CA1). Item: Cc1nc(N)ccc1CNC(=O)[C@H](C)NC(=O)[C@H]1C[C@H](Cc2ccccc2-c2ccccc2)CN1 [compound 1373, Di-trifluoroacetate salt]
-- reply −84.42

-- ask Kindly indicate its recorded Pharmacophore torsion angle a(O1, H4, O2, CA1). Item: C[C@H](NC(=O)[C@H]1C[C@@H](c2ccccc2)CCN1)C(=O)NCc1cc(Cl)ccc1O.Cl [1078_3]
-- reply −82.33

-- ask Kindly indicate its recorded Pharmacophore torsion angle a(O1, H4, O2, CA1). Item: C[C@H](NC(=O)[C@H](N)C1Cc2ccccc2C1)C(=O)NCc1ccc2c(N)nccc2c1.Cl.Cl [1088_B]
-- reply −63.34

-- ask Kindly indicate its recorded Pharmacophore torsion angle a(O1, H4, O2, CA1). Item: C[C@H](NC(=O)[C@H](N)CCc1ccccc1)C(=O)NCc1ccc(N)nc1.Cl.Cl [1007_2]
-- reply −94.30

-- ask Kindly indicate its recorded Pharmacophore torsion angle a(O1, H4, O2, CA1). Item: C[C@H](NC(=O)[C@H]1C[C@@H](c2ccccc2)CCN1)C(=O)NCc1cc(Cl)ccc1O.Cl [1078_7]
-- reply −57.85

-- ask Kindly indicate its recorded Pharmacophore torsion angle a(O1, H4, O2, CA1). Item: CC(=O)Nc1ccc(CCNC(CCc2ccccc2)C(=O)NC(C)C(=O)NCc2ccc(C(=N)N)cc2)cc1.Cl.Cl (centres unmarked) [1345_1]
-- reply −62.84

-- ask Kindly indicate its recorded Pharmacophore torsion angle a(O1, H4, O2, CA1). Item: CC(NC(=O)C1CC(Cc2ccccc2)CN1)C(=O)NCc1cnc2c(c1)c(Cl)cn2C.Cl.Cl (centres unmarked)
-- reply −91.88

-- ask Kindly indicate its recorded Pharmacophore torsion angle a(O1, H4, O2, CA1). Item: C[C@H](NC(=O)[C@@H](CCc1ccccc1)NCCCc1ccc(O)cc1)C(=O)NCc1ccc(C(=N)N)cc1.Cl.Cl
-- reply −59.90

-- ask Kindly indicate its recorded Pharmacophore torsion angle a(O1, H4, O2, CA1). Item: C[C@H](NC(=O)[C@H]1C[C@@H](c2ccccc2)CCN1)C(=O)NCc1cc(Cl)ccc1O.Cl [1078_8]
-- reply −58.50

-- ask Kindly indicate its recorded Pharmacophore torsion angle a(O1, H4, O2, CA1). Item: CC(NC(=O)C(CCc1ccccc1)NCCCc1ccc(O)cc1)C(=O)NCc1ccc(C(=N)N)cc1.Cl.Cl (centres unmarked)
-- reply −59.90

-- ask Kindly indicate its recorded Pharmacophore torsion angle a(O1, H4, O2, CA1). Item: Cc1nc(N)ccc1CNC(=O)[C@H](C)NC(=O)[C@H]1C[C@@H](c2cccc3ccccc23)CCN1.Cl.Cl [1297_4]
-- reply −89.51

-- ask Kindly indicate its recorded Pharmacophore torsion angle a(O1, H4, O2, CA1). Item: C[C@H](NC(=O)[C@H]1C[C@@H](c2ccccc2)CN1)C(=O)NCc1ccc2c(N)nccc2c1.Cl.Cl [1089_A]
-- reply −95.88

-- ask Kindly indicate its recorded Pharmacophore torsion angle a(O1, H4, O2, CA1). Item: Cc1nc(N)ccc1CNC(=O)[C@H](C)NC(=O)[C@H]1C[C@@H](c2cccc3ccccc23)CCN1.Cl.Cl [1297_5]
-- reply −86.41

-- ask Kindly indicate its recorded Pharmacophore torsion angle a(O1, H4, O2, CA1). Item: C[C@H](NC(=O)C1C[C@@H](c2ccccc2)CCN1)C(=O)NCc1ccc(C(=N)N)cc1 (stereo in doubt)
-- reply −74.94

-- ask Kindly indicate its recorded Pharmacophore torsion angle a(O1, H4, O2, CA1). Item: C[C@H](NC(=O)[C@H]1C[C@H](c2ccccc2)CN1)C(=O)NCc1ccc2c(N)nccc2c1
-- reply −92.71

-- ask Kindly indicate its recorded Pharmacophore torsion angle a(O1, H4, O2, CA1). Item: C[C@H](NC(=O)[C@H](N)CCCc1ccccc1)C(=O)NCc1ccc(C(=N)N)cc1.Cl.Cl [1042_2]
-- reply 68.80

-- ask Kindly indicate its recorded Pharmacophore torsion angle a(O1, H4, O2, CA1). Item: C[C@H](NC(=O)[C@H]1C[C@@H](c2ccccc2)CCN1)C(=O)NCc1cc(Cl)ccc1O.Cl [1078_15]
-- reply −64.96
